Just for reference, patent US20240141072A1 is where these values come from.

- test-target: T1, biotinylated human DLL3 protein expressed as a human IgG1 fusion protein (human, UniProt Q9NYJ7 27-492, limits assumed, biotinylated)
- T1 sequence: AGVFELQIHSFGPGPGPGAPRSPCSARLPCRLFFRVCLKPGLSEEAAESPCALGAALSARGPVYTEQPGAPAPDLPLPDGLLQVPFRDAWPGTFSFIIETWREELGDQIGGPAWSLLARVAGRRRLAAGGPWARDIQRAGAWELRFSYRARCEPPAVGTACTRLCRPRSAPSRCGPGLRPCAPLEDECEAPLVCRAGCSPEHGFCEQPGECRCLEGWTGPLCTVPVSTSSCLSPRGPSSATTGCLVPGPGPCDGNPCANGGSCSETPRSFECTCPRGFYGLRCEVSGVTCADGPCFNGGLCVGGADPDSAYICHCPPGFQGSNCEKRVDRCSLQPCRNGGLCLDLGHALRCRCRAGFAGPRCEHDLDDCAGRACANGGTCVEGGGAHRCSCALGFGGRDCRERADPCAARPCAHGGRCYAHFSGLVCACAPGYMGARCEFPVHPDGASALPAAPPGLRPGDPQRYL
- test-description: Octet BLI, 60/20/6.67/2.22 nM
measurement-kind: pKd
The value called pKd is obtained by taking minus log10 of the concentration in mol/L.

Would you please look over these solved cases?
Q: Value lookup for pKd; key = 3A02 anti-DLL3 trispecific protein (other, not shown: linker 1808, anti-albumin sdAb, linker 1808, anti-CD3 fragment, His6 1819) EVQLVESGGGLVQPGGSLTLSCAASGSSVSFLSLAWYRQAPGKKRELVAGISADGSTAYIDSVKGRFTISRDNAKNSVYLQMNSLRAEDTAVYYCYAYRWRTRYTYWGQGTLVTVSS
Result: 8.11

Q: Name the reported pKd value associated with the binder 2E05 anti-DLL3 trispecific protein (other, not shown: linker 1808, anti-albumin sdAb, linker 1808, anti-CD3 fragment, His6 1819) EVQLVESGGGLVQPGGSLTLSCVASGSPSSINAYGWYRRAPGKQRELVAGISSDGSKVYSDSVKGRFTISRDNAKNSVYLQMNSLRAEDTAVYYCYYFRTVSGSSMSYWGQGTLVTVSS
Result: 8.46

Q: Data request, read-out pKd, for 4H011 anti-DLL3 trispecific protein (other, also called 4H11; not shown: linker 1808, anti-albumin sdAb, linker 1808, anti-CD3 fragment, His6 1819) EVQLVESGGGLVQPGGSLTLSCAASGSSVSRLSMAWYRQAPGKKRELVAGISVDGSTDYIDSVKGRFTISRDNAKNSVYLQMNSLRAEDTAVYYCYAYRWTTRLTYWGQGTLVTVSS
Result: 8.41

Could you now consider this next binder?
Q: # input binder: 1H012 anti-DLL3 trispecific protein (other, also called 1H12; not shown: linker 1808, anti-albumin sdAb, linker 1808, anti-CD3 fragment, His6 1819) EVQLVESGGGLVQPGGSLTLSCVASGSTSSINAMGWYRRAPGKQRELVAGISSDGSKVYVDSVKGRFTISRDNAKNSVYLQMNSLRAEDTAVYYCYYFRTVSGSSMPYWGQGTLVTVSS ; wanted: its pKd
Result: 8.54
